B1: Proto-oncogene vav, residues 782 to 842; numbered along this chain, P15498 (parent)
chain: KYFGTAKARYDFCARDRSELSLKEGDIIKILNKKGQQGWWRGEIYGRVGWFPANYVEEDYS

# Variants of: B1
# procedure.summary: abundance fitness (aPCA) (normalised: wild type 0, dead -1); higher = more abundant; growth selection in yeast, the domain comes from the species named
# experimental.setup: Homo sapiens
Each entry below lists one item and its recorded abundance fitness value.
Would you mind answering with just the numeric figure?

>  <changes>
E24L

>  <abundance fitness>
-0.809

$$$$
>  <changes>
A14K

>  <abundance fitness>
-0.692

$$$$

## Task Report abundance fitness for `G25L`
## Result -0.904
